system tested: Tyrosine-protein kinase Fes/Fps (Homo sapiens) (UniProt P07332)
Sequence (P07332 whole entry): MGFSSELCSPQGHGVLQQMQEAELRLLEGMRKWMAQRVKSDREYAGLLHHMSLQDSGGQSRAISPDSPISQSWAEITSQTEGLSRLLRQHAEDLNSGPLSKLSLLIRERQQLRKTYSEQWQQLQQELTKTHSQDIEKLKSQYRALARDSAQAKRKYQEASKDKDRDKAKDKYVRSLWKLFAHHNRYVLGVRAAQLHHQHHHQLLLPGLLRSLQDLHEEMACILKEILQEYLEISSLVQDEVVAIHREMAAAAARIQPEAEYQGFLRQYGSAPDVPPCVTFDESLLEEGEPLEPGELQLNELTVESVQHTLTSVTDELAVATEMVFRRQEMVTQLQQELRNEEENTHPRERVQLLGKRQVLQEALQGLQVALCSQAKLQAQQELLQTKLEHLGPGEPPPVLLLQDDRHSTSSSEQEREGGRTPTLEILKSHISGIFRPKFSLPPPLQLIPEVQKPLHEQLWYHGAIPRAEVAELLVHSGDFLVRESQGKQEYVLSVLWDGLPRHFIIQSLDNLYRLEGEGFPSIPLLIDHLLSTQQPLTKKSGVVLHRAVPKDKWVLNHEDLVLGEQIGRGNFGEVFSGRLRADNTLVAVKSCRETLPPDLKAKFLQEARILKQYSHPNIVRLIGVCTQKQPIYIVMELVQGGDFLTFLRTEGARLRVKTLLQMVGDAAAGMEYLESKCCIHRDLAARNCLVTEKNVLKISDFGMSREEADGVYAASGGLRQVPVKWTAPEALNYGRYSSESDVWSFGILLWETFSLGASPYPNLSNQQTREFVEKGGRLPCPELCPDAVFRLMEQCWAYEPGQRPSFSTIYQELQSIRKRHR
test: Inhibition of FES at 10 uM by HTRF assay relative to control
Tag: met if measured inhibition is not below 5%, not met if it is.

1. COc1cccc(Nc2cc(Nc3cccc(C(=O)NCCCn4ccnc4)c3)nc(N)n2)c1 | met
2. COc1ccc(-c2noc(CN3CCN(c4cc(Nc5cccc(O)c5)ncn4)CC3)n2)cc1 | met
3. Cc1cccc(N(C)c2cc(N3CCN(C(=O)Cc4c[nH]c5ccccc45)CC3)ncn2)c1 | met
4. Cc1cc(C(=O)N2CCN(c3ncnc4c3CN(Cc3ccccc3)CC4)CC2)c(C)n1C | not met
5. O=C(CN1CCN(c2ncnc3c2CN(Cc2ccccc2)CC3)CC1)Nc1cc(F)ccc1F | met
6. O=C(NCc1cccnc1)c1cccc(-c2ccc(Nc3ccc4ncsc4c3)nn2)c1 | met
7. COc1cccc(Nc2cc(Nc3cccc(C(=O)N(C)CCc4ccccn4)c3)nc(N)n2)c1 | met
8. Cc1cccc(Nc2nccc(Nc3cccc(C(=O)N(C)CCc4ccccn4)c3)n2)c1 | met
9. CN(CCc1ccccn1)C(=O)[C@@H]1CCCN1c1nccc(Nc2ccccc2)n1 | met
10. CC(=O)N1CCN(C(=O)c2cccc(Nc3cc(N(C)c4cccc(C)c4)ncn3)c2)CC1 | met
11. Cc1cccc(Oc2ccnc(N3CCC[C@H]3C(=O)NCCCn3ccnc3)n2)c1 | not met
12. Cc1cccc(Oc2ccnc(N3CCN(C(=O)c4c(C)noc4C)CC3)n2)c1 | met
13. Cc1cccc(Nc2nccc3c2CN(C(=O)c2cc(C)n(C)c2C)CC3)c1 | not met
14. Nc1nc(Nc2ccc3ncsc3c2)cc(N2CCC[C@H]2C(=O)N[C@@H](CO)c2ccccc2)n1 | not met
15. COC[C@@H]1CCCN1C(=O)[C@@H]1CCCN1c1nccc(Nc2ccccc2)n1 | met
16. Cc1cccc(Nc2cc(Nc3cccc(C(=O)N(CC(C)O)CC(C)O)c3)ncn2)c1 (centres undefined) | met
17. Cc1cccc(Nc2nccc(Nc3cccc(C(=O)NCc4ccc(N(C)C)cc4)c3)n2)c1 | met
18. Nc1nc(Nc2ccccc2)cc(N2CCC(C(=O)NCCc3ccccn3)CC2)n1 | not met
19. CN(CCCn1ccnc1)C(=O)[C@@H]1CCCN1c1nccc(Nc2ccccc2)n1 | not met
20. Cc1cccc(N(C)c2cc(Nc3cccc(C(=O)NCc4ccc(N(C)C)cc4)c3)ncn2)c1 | not met
21. Nc1nc(Nc2ccc(C(=O)NCCc3ccncc3)cc2)cc(N2CCOCC2)n1 | met
22. CN(CCc1ccccn1)C(=O)c1cccc(Nc2nccc(Nc3ccc4ncsc4c3)n2)c1 | met
23. Nc1nc(N2CCOCC2)cc(N2CCC(C(=O)NCCc3ccc(O)cc3)CC2)n1 | met
24. Cc1cccc(Oc2ccnc(N3CCN(CC(=O)Nc4cccc5c4CCCC5)CC3)n2)c1 | met
25. O=C(c1nc(SCc2ccc(Cl)cc2)n2ccccc12)N1CCN(c2cc(Nc3cccc(Br)c3)ncn2)CC1 | not met
26. Cc1cccc(N(C)c2cc(N3CCN(CC(=O)Nc4nc(-c5ccccc5)cs4)CC3)ncn2)c1 | not met
27. Cc1cccc(N(C)c2cc(Nc3cccc(C(=O)N4CCCC5CCCCC54)c3)ncn2)c1 (centres undefined) | met
